Values from ChEMBL document CHEMBL1811786

test: AUC in mouse at 160 mg/kg, po; type: ADME, organism-based; design: dose 160 mg/kg, route oral; details: plasma
VALUE KIND: AUC (µM·h)
// return numeric value only (unit: µM·h, not printed)

Name the reported AUC value associated with the compound "O=C(Nc1ccnn1-c1ccccc1)N1CCN2C(=O)N([C@H]3C[C@@H]3c3ccccc3)C(=O)[C@@H]2C1" 24

###

test: AUC in mouse at 40 mg/kg, po; assay type: ADME, organism-based; design: dose 40 mg/kg, route oral; conditions: plasma
VALUE KIND: AUC
Please make sure the unit comes right after the number.

Give its AUC value. Item: "O=C(Nc1ccnn1-c1ccccc1)N1CCN2C(=O)N([C@H]3C[C@@H]3c3ccccc3)C(=O)[C@@H]2C1" 6.4 µM·h
